assay: Dose normalized AUC in Sprague-Dawley rat at 1 mg/kg, po; format: ADME, organism-based; settings: in vivo
AUC/dose less than 2 µM·kg·h/mg is met; AUC/dose greater than or equal to 2 µM·kg·h/mg is not met.

Cc1c([C@H]2CN3CCN(C(=O)Cc4ccc(-n5cnnn5)nc4)C[C@H]3CO2)ccc2c1COC2=O met

For this molecule, is AUC/dose lower than 2 µM·kg·h/mg? `Cc1c([C@@H]2CN3CCN(C(=O)Cc4ccc(-n5cnnn5)nc4)C[C@H]3CO2)ccc(F)c1C#N`
met

Please give the result for `O=C1OCCc2cc([C@@H]3CN4CCN(C(=O)Cc5ccc(-n6cnnn6)nc5)C[C@H]4CO3)ccc21` too.
met

----------
assay: Stability in rhesus monkey hepatocytes assessed as compound remaining at 90 mins; assay type: ADME, cell-based, Macaca mulatta, Hepatocyte; settings: read-out: Stability
property: remaining at 1.5 h (%)
Give bare numbers, in %.

Fill blank: measured remaining at 1.5 h of the compound `Cc1c([C@@H]2CN3CCN(C(=O)Cc4ccc(-n5cnnn5)cn4)C[C@H]3CO2)ccc(F)c1C#N` is ____.
92

----------
assay: Half life in po dosed human; format: ADME, organism-based; settings: in vivo
property: half-life (min)
Answers are plain numbers, in min.

Using the record for Cc1cccc(Nc2ccncc2S(=O)(=O)NC(=O)NC(C)C)c1 [TORSEMIDE] , report its half-life.
180

----------
experiment: Half life in Beagle dog at 1 mg/kg, iv or 2 mg/kg, po administered qd; format: ADME, organism-based, Canis lupus familiaris; conditions: in vivo
property: half-life (h)
Numbers only, in h.

Give the measured half-life of `Cc1c([C@@H]2CN3CCN(C(=O)Cc4ccc(-n5cnnn5)cn4)C[C@H]3CO2)ccc(F)c1C#N` .
17.3

----------
test: Stability in rat microsomes assessed as compound remaining at 45 mins; assay type: ADME, Microsome; settings: read-out: Stability
property: remaining at 0.75 h (%)
One number for each entry, in %.

# query: remaining at 0.75 h of entry `Cc1c([C@@H]2CN3CCN(C(=O)Cc4ccc(-n5cnnn5)cn4)C[C@H]3CO2)ccc(F)c1C#N`
85

----------
Molecular target: Inward rectifier potassium channel 13 (Homo sapiens)
Sequence (O60928 whole entry): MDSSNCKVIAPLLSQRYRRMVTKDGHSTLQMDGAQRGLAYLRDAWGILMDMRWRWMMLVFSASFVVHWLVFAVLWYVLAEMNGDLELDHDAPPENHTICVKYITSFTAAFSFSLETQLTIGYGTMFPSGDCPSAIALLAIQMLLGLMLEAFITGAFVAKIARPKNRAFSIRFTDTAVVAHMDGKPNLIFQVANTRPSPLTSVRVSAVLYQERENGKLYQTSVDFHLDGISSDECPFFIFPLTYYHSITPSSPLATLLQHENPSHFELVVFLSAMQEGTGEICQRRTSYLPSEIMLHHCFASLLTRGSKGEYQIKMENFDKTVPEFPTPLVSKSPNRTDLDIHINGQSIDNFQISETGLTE
pIC50: −log10 of the molar value.
property: pIC50

Requested field: pIC50. Item: `Cc1c([C@@H]2CN3CCN(C(=O)Cc4ccc(-n5cnnn5)cn4)C[C@H]3CO2)ccc(F)c1C#N`
< 4.00

----------
molecular target: Voltage-gated inwardly rectifying potassium channel KCNH2 (Homo sapiens, UniProt Q12809); assay: Displacement of 35S-MK499 from human ERG expressed in HEK293 cell membranes
Sequence (Q12809 whole entry): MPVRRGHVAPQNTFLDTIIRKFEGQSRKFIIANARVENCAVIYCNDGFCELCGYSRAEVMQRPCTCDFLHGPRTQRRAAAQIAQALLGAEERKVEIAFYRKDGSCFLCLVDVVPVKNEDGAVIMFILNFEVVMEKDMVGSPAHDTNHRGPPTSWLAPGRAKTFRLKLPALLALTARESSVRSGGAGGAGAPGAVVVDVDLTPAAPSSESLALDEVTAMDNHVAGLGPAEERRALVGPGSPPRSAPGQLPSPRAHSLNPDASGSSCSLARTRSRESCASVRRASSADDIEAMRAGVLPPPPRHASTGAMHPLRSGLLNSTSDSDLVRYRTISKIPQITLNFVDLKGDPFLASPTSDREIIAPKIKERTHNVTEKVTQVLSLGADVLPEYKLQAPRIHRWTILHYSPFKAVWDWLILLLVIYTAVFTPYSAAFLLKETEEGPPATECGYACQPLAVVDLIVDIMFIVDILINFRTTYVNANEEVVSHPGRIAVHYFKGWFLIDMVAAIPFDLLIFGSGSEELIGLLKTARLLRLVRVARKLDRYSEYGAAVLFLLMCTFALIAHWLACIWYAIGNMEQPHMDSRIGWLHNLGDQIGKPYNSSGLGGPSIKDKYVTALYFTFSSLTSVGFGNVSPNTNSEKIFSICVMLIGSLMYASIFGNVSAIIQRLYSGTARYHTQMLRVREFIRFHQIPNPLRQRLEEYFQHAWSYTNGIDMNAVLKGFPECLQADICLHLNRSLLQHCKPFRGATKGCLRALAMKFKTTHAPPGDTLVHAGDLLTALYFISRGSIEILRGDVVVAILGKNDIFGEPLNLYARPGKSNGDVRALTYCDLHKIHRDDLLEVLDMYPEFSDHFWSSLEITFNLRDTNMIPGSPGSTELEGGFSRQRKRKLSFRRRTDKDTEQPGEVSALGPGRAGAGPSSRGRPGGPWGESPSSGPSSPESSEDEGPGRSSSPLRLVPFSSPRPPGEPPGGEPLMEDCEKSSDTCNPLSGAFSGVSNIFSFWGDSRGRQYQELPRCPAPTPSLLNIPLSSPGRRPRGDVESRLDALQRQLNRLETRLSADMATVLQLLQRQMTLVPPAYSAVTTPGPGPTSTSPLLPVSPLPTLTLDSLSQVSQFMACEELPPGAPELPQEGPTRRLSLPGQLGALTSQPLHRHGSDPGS
property: IC50

Solved entries (count: 3):
Cc1c([C@@H]2CN3CCN(C(=O)Cc4ccc(-n5cnnn5)nc4)C[C@H]3CS2)ccc2c1COC2=O 8.9 µM
Cc1c([C@@H]2CN3CCN(C(=O)Cc4ccc(-n5cnnn5)nc4)C[C@@H]3CO2)ccc2c1COC2=O 59.4 µM
Cc1c([C@H]2CN3CCN(C(=O)Cc4ccc(-n5cnnn5)nc4)C[C@H]3CO2)ccc2c1COC2=O 26.8 µM

Batch request: IC50 for each of the following compounds.
1. Cc1c([C@@H]2CN3CCN(C(=O)Cc4ccc(-n5cnnn5)nc4)C[C@H]3CO2)ccc2c1COC2=O
2. Cc1c([C@H]2CN3CCN(C(=O)Cc4ccc(-n5cnnn5)nc4)C[C@@H]3CN2)ccc2c1COC2=O
3. Cc1c([C@H]2CN3CCN(C(=O)Cc4ccc(-n5cnnn5)nc4)C[C@@H]3CO2)ccc2c1COC2=O

1. 21.1 µM
2. 22 µM
3. 53.4 µM

----------
biological target: ATP-sensitive inward rectifier potassium channel 1 (Homo sapiens, UniProt P48048); assay: Inhibition of human ROMK expressed in CHO cells after 6 mins at -70 mV holding potential by electrophysiology method
Sequence (P48048 whole entry): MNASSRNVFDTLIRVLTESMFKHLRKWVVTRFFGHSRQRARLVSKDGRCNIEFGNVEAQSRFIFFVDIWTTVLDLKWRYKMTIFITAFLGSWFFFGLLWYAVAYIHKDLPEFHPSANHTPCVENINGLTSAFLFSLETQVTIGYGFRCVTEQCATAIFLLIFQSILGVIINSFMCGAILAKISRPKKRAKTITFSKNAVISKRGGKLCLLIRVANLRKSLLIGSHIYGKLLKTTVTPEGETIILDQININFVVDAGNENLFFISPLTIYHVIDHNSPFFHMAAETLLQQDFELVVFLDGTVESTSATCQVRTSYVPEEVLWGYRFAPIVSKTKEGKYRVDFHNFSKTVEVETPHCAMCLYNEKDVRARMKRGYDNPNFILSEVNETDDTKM
property: IC50 (nM)
Answers are plain numbers, in nM.

O=C(Cc1ccc(-n2cnnn2)nc1)N1CCN2C[C@@H](c3ccc4nonc4c3)OC[C@@H]2C1 45
Cc1c([C@H]2CN3CCN(C(=O)Cc4ccc(-n5cnnn5)nc4)C[C@H]3CO2)ccc2nonc12 83
Cc1c([C@H]2CN3CCN(C(=O)Cc4ccc(-n5cnnn5)cn4)C[C@H]3CO2)ccc(F)c1C#N 70
O=C1OCCc2cc([C@@H]3CN4CCN(C(=O)Cc5cnc(-n6cnnn6)nc5)C[C@H]4CO3)ccc21 260
Cc1c([C@@H]2CN3CCN(C(=O)Cc4ccc(-n5cnnn5)nc4)C[C@H]3CO2)ccc2nonc12 72

Please go through the list and note IC50 for each molecule.
1. Cc1c([C@H]2CN3CCN(C(=O)Cc4ccc(-n5cnnn5)nc4)C[C@H]3CO2)ccc2c1COC2=O
2. Cc1c([C@@H]2CN3CCN(C(=O)Cc4ccc(-n5cnnn5)nc4)C[C@@H]3CO2)ccc2c1COC2=O
3. Cc1c([C@@H]2CN3CCN(C(=O)Cc4ccc(-n5cnnn5)cn4)C[C@H]3CO2)ccc(F)c1C#N
4. Cc1c([C@H]2CN3CCN(C(=O)Cc4ccc(-n5cnnn5)nn4)C[C@H]3CO2)ccc(F)c1C#N

1: 88; 2: 86; 3: 73; 4: 86

----------
Molecular target: UniProtKB P63252
Sequence (P63252 whole entry): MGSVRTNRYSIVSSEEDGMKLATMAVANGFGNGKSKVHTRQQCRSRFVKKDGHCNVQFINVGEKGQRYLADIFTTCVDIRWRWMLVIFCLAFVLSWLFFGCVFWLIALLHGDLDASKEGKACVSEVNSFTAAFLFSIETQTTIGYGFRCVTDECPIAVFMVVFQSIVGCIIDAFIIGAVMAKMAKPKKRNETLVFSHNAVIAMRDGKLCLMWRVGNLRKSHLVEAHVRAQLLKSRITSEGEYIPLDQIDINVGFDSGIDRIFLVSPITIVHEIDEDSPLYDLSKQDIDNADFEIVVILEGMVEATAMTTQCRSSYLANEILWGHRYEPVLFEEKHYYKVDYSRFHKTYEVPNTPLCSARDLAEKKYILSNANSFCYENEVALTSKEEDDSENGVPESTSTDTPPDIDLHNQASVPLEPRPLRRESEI
property: IC50

Form: Entry = `Cc1c([C@@H]2CN3CCN(C(=O)Cc4ccc(-n5cnnn5)cn4)C[C@H]3CO2)ccc(F)c1C#N` | System = UniProtKB P63252 | IC50 = ____
> 100 µM

----------
test: Unbound fraction in dog plasma; type: ADME, cell-free, Canis lupus familiaris
property: fraction unbound

Tell me the measured fraction unbound of `Cc1c([C@@H]2CN3CCN(C(=O)Cc4ccc(-n5cnnn5)cn4)C[C@H]3CO2)ccc(F)c1C#N` , please.
0.52

----------
assay: Half life in Sprague-Dawley rat at 0.5 mg/kg, iv or 1 mg/kg, po; assay type: ADME, organism-based; details: in vivo
Provide the reported half-life of each item.
Give bare numbers, in h.

Worked set:
Cc1c(C#N)cccc1[C@@H]1CN2CCN(C(=O)Cc3ccc(-n4cnnn4)nc3)C[C@@H]2CO1 1.64
Cc1c([C@H]2CN3CCN(C(=O)Cc4ccc(-n5cnnn5)nc4)C[C@H]3CO2)ccc(F)c1C#N 1.46
O=C1OCCc2cc([C@@H]3CN4CCN(C(=O)Cc5cnc(-n6cnnn6)nc5)C[C@H]4CO3)ccc21 0.49
Cc1c([C@@H]2CN3CCN(C(=O)Cc4ccc(-n5cnnn5)nc4)C[C@H]3CO2)ccc(F)c1C#N 1.05
Cc1c([C@@H]2CN3CCN(C(=O)Cc4cnc(-n5cnnn5)cn4)C[C@H]3CO2)ccc(F)c1C#N 1.4
Cc1c([C@H]2CN3CCN(C(=O)Cc4ccc(-n5cnnn5)cn4)C[C@H]3CO2)ccc(F)c1C#N 0.96
O=C1OCCc2cc([C@@H]3CN4CCN(C(=O)Cc5ccc(-n6cnnn6)nc5)C[C@H]4CO3)ccc21 0.85

We now examine a further compound.
Param item = `Cc1c([C@H]2CN3CCN(C(=O)Cc4ccc(-n5cnnn5)nc4)C[C@H]3CO2)ccc2nonc12` ; retrieve measured half-life.
0.97

----------
molecular target: Cytochrome P450 2D6 (Homo sapiens)
Sequence (P10635 whole entry): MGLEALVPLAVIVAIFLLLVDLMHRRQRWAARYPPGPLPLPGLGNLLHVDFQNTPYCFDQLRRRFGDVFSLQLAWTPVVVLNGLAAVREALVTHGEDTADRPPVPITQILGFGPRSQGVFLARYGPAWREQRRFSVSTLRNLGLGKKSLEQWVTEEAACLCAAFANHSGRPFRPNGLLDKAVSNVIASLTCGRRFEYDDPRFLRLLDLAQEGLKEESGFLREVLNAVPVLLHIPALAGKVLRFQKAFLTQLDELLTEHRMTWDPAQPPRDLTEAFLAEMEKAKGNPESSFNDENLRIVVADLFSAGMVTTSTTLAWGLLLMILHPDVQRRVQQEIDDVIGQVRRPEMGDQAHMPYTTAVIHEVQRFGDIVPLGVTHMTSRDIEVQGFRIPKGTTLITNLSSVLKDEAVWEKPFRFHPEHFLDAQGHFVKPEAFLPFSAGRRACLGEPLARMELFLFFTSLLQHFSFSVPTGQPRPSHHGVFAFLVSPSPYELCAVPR
property: IC50

I am curious: what IC50 value has been reported for `Cc1c([C@@H]2CN3CCN(C(=O)Cc4ccc(-n5cnnn5)cn4)C[C@H]3CO2)ccc(F)c1C#N` ?
> 50 µM
